target: U1A E19K (UniProt P09012 10-89, E19K); assay: fluorescence polarization
Sequence (P09012 10-89 E19K): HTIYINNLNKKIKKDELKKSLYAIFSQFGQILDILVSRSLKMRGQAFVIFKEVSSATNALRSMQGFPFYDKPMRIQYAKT
readout type: Kd (µM)
Field: numeric (µM). Do not append units.

| binder | Kd, µM |
| --- | --- |
| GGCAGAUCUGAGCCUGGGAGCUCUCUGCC (structured_RNA) [TAR RNA] | 5.9 |

Alright, here's another binder for you.
Item GGCAGATCTGAGCCTGGGAGCTCTCTGCC (structured_DNA) [TAR DNA] has what recorded Kd?
12.3
